Test: Dissolution comparison of Nα-Nsc-amino acids and Nα-Fmoc-amino acids
Assay type: physicochemical
Design: key: ◯: dissolution; Δ: partial dissolution; X: no dissolution
Conditions: Nsc-amino acid, 100 mg in 1 ml dichloromethane, heated at 40° C. for 5 minutes, then room temperature 5 minutes
value_type: Dissolved state, Nsc, column B

[
  {
    "molecule": "O=C(NC(Cc1cn(C(c2ccccc2)(c2ccccc2)c2ccccc2)cn1)C(=O)O)OCCS(=O)(=O)c1ccc([N+](=O)[O-])cc1 (stereo not shown)",
    "value_type": "Dissolved state, Nsc, column B",
    "value_measured": "◯"
  },
  {
    "molecule": "Cc1c(C)c(S(=O)(=O)N=C(N)NCCCC(NC(=O)OCCS(=O)(=O)c2ccc([N+](=O)[O-])cc2)C(=O)O)c(C)c2c1OC(C)(C)C2 (stereo not shown)",
    "value_type": "Dissolved state, Nsc, column B",
    "value_measured": "◯"
  },
  {
    "molecule": "CC(OC(C)(C)C)C(NC(=O)OCCS(=O)(=O)c1ccc([N+](=O)[O-])cc1)C(=O)O (stereo not shown)",
    "value_type": "Dissolved state, Nsc, column B",
    "value_measured": "◯"
  },
  {
    "molecule": "O=C(CC(NC(=O)OCCS(=O)(=O)c1ccc([N+](=O)[O-])cc1)C(=O)O)NC(c1ccccc1)(c1ccccc1)c1ccccc1 (stereo not shown)",
    "value_type": "Dissolved state, Nsc, column B",
    "value_measured": "X"
  },
  {
    "molecule": "O=C(N[C@@H](Cc1c[nH]c2ccccc12)C(=O)O)OCCS(=O)(=O)c1ccc([N+](=O)[O-])cc1",
    "value_type": "Dissolved state, Nsc, column B",
    "value_measured": "X"
  },
  {
    "molecule": "CC(C)(C)OC(=O)CCC(NC(=O)OCCS(=O)(=O)c1ccc([N+](=O)[O-])cc1)C(=O)O (stereo not shown)",
    "value_type": "Dissolved state, Nsc, column B",
    "value_measured": "◯"
  },
  {
    "molecule": "O=C(N[C@@H](Cc1ccccc1)C(=O)O)OCCS(=O)(=O)c1ccc([N+](=O)[O-])cc1",
    "value_type": "Dissolved state, Nsc, column B",
    "value_measured": "X"
  }
]

====

Experiment: Dissolution comparison of Nα-Nsc-amino acids and Nα-Fmoc-amino acids
Format: physicochemical
Set-up: key: ◯: dissolution; Δ: partial dissolution; X: no dissolution
Details: Fmoc-amino acid, 100 mg in 1 ml dichloromethane, stirring 5 minutes

[
  {
    "molecule": "O=C(O)[C@@H]1CCCN1C(=O)OCC1c2ccccc2-c2ccccc21 [Fmoc-Pro, reference compound]",
    "Dissolved state, Fmoc, column A": "◯"
  },
  {
    "molecule": "O=C(NC(Cc1cn(C(c2ccccc2)(c2ccccc2)c2ccccc2)cn1)C(=O)O)OCC1c2ccccc2-c2ccccc21 (stereo not drawn) [Fmoc-His, reference compound]",
    "Dissolved state, Fmoc, column A": "◯"
  },
  {
    "molecule": "CC(C)(C)OCC(NC(=O)OCC1c2ccccc2-c2ccccc21)C(=O)O (stereo not drawn) [Fmoc-Ser, reference compound]",
    "Dissolved state, Fmoc, column A": "◯"
  },
  {
    "molecule": "CC(C)C[C@@H](NC(=O)OCC1c2ccccc2-c2ccccc21)C(=O)O [Fmoc-Leu, reference compound]",
    "Dissolved state, Fmoc, column A": "Δ"
  },
  {
    "molecule": "CC(OC(C)(C)C)C(NC(=O)OCC1c2ccccc2-c2ccccc21)C(=O)O (stereo not drawn) [Fmoc-Thr, reference compound]",
    "Dissolved state, Fmoc, column A": "◯"
  },
  {
    "molecule": "CC(C)(C)OC(=O)NCCCCC(NC(=O)OCC1c2ccccc2-c2ccccc21)C(=O)O (stereo not drawn) [Fmoc-Lys, reference compound]",
    "Dissolved state, Fmoc, column A": "◯"
  },
  {
    "molecule": "CC(C)(C)Oc1ccc(CC(NC(=O)OCC2c3ccccc3-c3ccccc32)C(=O)O)cc1 (stereo not drawn) [Fmoc-Tyr, reference compound]",
    "Dissolved state, Fmoc, column A": "Δ"
  },
  {
    "molecule": "NC(=O)CC[C@H](NC(=O)OCC1c2ccccc2-c2ccccc21)C(=O)O [Fmoc-Gln, reference compound]",
    "Dissolved state, Fmoc, column A": "◯"
  },
  {
    "molecule": "CC(C)[C@H](NC(=O)OCC1c2ccccc2-c2ccccc21)C(=O)O [Fmoc-Val, reference compound]",
    "Dissolved state, Fmoc, column A": "X"
  }
]
